We begin with a simple list: items and their reported MIC.
# Tested on: Staphylococcus aureus 209P
# Protocol Summary: MIC by tube dilution method in brain heart infusion broth
# Type: cell-based
# Condition Label: Staphylococcus aureus, 209P, pH 7.5, read-out: Antimicrobial activity (MIC) Staphylococcus aureus 209P
# Procedure: The minimum growth inhibitory concentrations (MIC) of the compounds (I) against various microorganisms were measured by a tube dilution method in a brain heart infusion broth (pH 7.5) as a medium.
Give just the numeric value; µg/mL need not be written.

INSERT INTO results (molecule, display_unit, result) VALUES
  ('CCC1OC(=O)CC(O)C(C)C(OC2OC(C)C(OC3CC(C)(OC(C)=O)C(OC(=O)C4CCCCC4)C(C)O3)C(N(C)C)C2O)C(CC=O)CC(C)C(=O)/C=C/C(C)=C/C1C (centres unmarked)', 'µg/mL', 1.6),
  ('CCC1OC(=O)CC(O)C(C)C(OC2OC(C)C(OC3CC(C)(O)C(OC4CCCCO4)C(C)O3)C(N(C)C)C2O)C(CC=O)CC(C)C(=O)/C=C/C(C)=C/C1C (centres unmarked)', 'µg/mL', 1.6);

Input: # input molecule: CCC1OC(=O)CC(O)C(C)C(OC2OC(C)C(OC3CC(C)(O)C(OC(=O)CC(C)C)C(C)O3)C(N(C)C)C2O)C(CC=O)CC(C)C(=O)C=CC(C)=CC1C (centres unmarked) [R1=H; R2=H; YR3=COCH2CH(CH3)2, 4"-isovaleryl YT-3927] ; wanted: its MIC
Output: 0.4

---

# System: Staphylococcus aureus 209P
# Protocol Summary: MIC by tube dilution method in brain heart infusion broth
# Assay type: cell-based
# Condition Label: Staphylococcus aureus, 209P, pH 7.5, read-out: Antimicrobial activity (MIC) Staphylococcus aureus 209P
# MIC per entry

Please review the following examples before continuing.
INSERT INTO measurements (compound, property_label, result) VALUES
  ('CCC1OC(=O)CC(O)C(C)C(OC2OC(C)C(OC3CC(C)(O)C(OS(=O)(=O)c4ccc(C)cc4)C(C)O3)C(N(C)C)C2O)C(CC=O)CC(C)C(=O)/C=C/C(C)=C/C1C (stereo not shown)', 'MIC', '< 0.2 µg/mL'),
  ('CCC1OC(=O)CC(O)C(C)C(OC2OC(C)C(OC3CC(C)(O)C(O)C(C)O3)C(N(C)C)C2O)C(CC=O)CC(C)C(=O)C=CC(C)=CC1C (stereo not shown) [Antibiotic YT-3927, antibiotic YT-3927]', 'MIC', '0.4 µg/mL'),
  ('CCC1OC(=O)CC(O)C(C)C(OC2OC(C)C(OC3CC(C)(O)C(OC(=O)C(O)c4ccccc4)C(C)O3)C(N(C)C)C2O)C(CC=O)CC(C)C(=O)C=CC(C)=CC1C (stereo not shown)', 'MIC', '< 0.2 µg/mL');

Input: Could you tell me which MIC is on file for CCC1OC(=O)CC(O)C(C)C(OC2OC(C)C(OC3CC(C)(OC(C)=O)C(OC(=O)CSc4ccncc4)C(C)O3)C(N(C)C)C2O)C(CC=O)CC(C)C(=O)C=CC(C)=CC1C (stereo not shown) ?
Output: < 0.2 µg/mL
